Assay: TPP-IOA levels in plasma, small intestine and bone marrow after i.p. injection (LC-MS/MS, SRM)
Assay type: in vivo
Details: C57BL/6NTac, mouse, bone marrow, ip; 10 min after i.p. injection, 5 mg/kg body weight; read-out: TPP-IOA level in bone marrow
Experimental: TPP-IOA and its hydrolysis products were extracted from plasma, small intestine and bone marrow tissue 10 min after TPP-IOA i.p. injection into animals (5 mg/kg body weight), using a standard Folch procedure for extraction of lipids^37. In one set of runs, intact TPP-IOA was assessed by SRM as described below. In an identical set of duplicate runs, hydrolyzed TPP-IOA (in the form of the TPP moiety, see below) was assessed by a different mass spectrometric method, MRM, as described below. […]
MEASURED_PARAMETER: concentration at 10 min (ng/g)

1. CCCCCCC(C/C=C\CCCCCCCC(=O)OCCC[P+](c1ccccc1)(c1ccccc1)c1ccccc1)n1ccnc1.[Br-] (stereo not shown) [TPP-IOA] | 0.2

###

test: TPP-IOA levels in plasma, small intestine and bone marrow after i.p. injection (LC-MS/MS, SRM); format: in vivo; conditions: C57BL/6NTac, mouse, plasma, ip; 10 min after i.p. injection, 5 mg/kg body weight; read-out: TPP-IOA level in plasma
MEASURED_PARAMETER: concentration at 10 min (ng/mL)

1. CCCCCCC(C/C=C\CCCCCCCC(=O)OCCC[P+](c1ccccc1)(c1ccccc1)c1ccccc1)n1ccnc1.[Br-] (stereo not shown) [TPP-IOA] | 54

###

molecular target: cyt c/TOCL complexes (Equus caballus, UniProt P00004); construct: purchased Sigma (St. Louis, Mo.); experiment: Peroxidase activity of cyt c/TOCL complexes, H2O2-induced oxidation of Amplex Red to resorufin; type: biochemical; conditions: cyt c 1 μM, CL/cyt c 25:1, 50 μM Amplex Red, 50 μM H2O2, 20 min
Sequence (P00004 2-105 limits assumed, one chain of several): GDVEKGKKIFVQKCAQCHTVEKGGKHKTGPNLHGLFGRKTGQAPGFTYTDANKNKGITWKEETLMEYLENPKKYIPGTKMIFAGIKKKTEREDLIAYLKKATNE
MEASURED_PARAMETER: inhibition of peroxidase activity of cyt c/TOCL complexes (Amplex Red oxidation)

1) CCCCCCC(C/C=C\CCCCCCCC(=O)O)n1ccnc1 (centres unmarked) [IOA, 12-(Imidazol-1-yl)-(Z)-9-octadecaenoate] | potent inhibitors
2) CCCCCCC(C/C=C/CCCCCCCC(=O)O)n1ccnc1 (centres unmarked) | potent inhibitors
3) CCCCCCC(CCCCCCCCCCC(=O)O)n1ccnc1 (centres unmarked) | potent inhibitors

###

assay: TPP-IOA levels in plasma, small intestine and bone marrow after i.p. injection (LC-MS/MS, SRM); format: in vivo; conditions: C57BL/6NTac, mouse, small intestine, ip; 10 min after i.p. injection, 5 mg/kg body weight; read-out: TPP-IOA level in small intestine
MEASURED_PARAMETER: concentration at 10 min (ng/g)

1) CCCCCCC(C/C=C\CCCCCCCC(=O)OCCC[P+](c1ccccc1)(c1ccccc1)c1ccccc1)n1ccnc1.[Br-] (stereo not shown) | 1.5

Sourced from patent US9365597B2
